Taken from patent US20110028447A1.

# assayed-system: human CB1 receptor (Homo sapiens, UniProt P21554)
# Sequence (P21554 whole entry): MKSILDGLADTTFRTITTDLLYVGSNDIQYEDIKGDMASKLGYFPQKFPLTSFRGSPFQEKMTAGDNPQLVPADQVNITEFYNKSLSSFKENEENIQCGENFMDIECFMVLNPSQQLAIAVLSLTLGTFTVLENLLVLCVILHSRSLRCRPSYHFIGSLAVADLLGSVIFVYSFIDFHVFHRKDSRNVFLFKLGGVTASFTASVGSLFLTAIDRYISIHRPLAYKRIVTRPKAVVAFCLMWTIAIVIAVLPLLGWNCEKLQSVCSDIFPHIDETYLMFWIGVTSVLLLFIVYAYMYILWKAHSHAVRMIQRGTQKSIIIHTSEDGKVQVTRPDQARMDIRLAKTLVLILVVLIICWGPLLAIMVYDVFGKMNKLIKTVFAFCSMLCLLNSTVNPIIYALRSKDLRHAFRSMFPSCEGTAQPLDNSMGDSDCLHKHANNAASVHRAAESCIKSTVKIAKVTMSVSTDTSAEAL
# experiment: Human CB1 receptor binding, [3H] CP-55,940 displacement on HEK cell membranes
# Design: expressed in transfected cells; host or cells: HEK cells, doxycycline-induced; membrane preparation
# particulars: CB1 Ki
assay-metric: pKi
By convention, pKi is the negative base-10 log of a molar concentration.

Consider the reported pKi for these compounds:
COC(=O)[C@@H](O)CNC(=O)[C@@H](NC(=O)c1nn(Cc2ccc(F)cc2)c2ccccc12)C(C)(C)C [Example 238] ... 8.19
CC(C)(C)[C@H](NC(=O)c1nn(Cc2ccc(C#N)cc2)c2c(F)cccc12)C(=O)N[C@@H]1CNC(=O)C1 [Example 457] ... 8.75
CC(C)(C)[C@H](NC(=O)c1nn(Cc2ccc(F)cc2)c2c(Cl)cc(Cl)cc12)C(N)=O [Example 226] ... 9.74
CC(C)(C)C(NC(=O)c1nn(Cc2ccc(F)cc2)c2ccc(F)cc12)C(=O)NCC(N)=O (stereo not shown) [Example 173] ... 8.63
CC(C)(C)[C@H](NC(=O)c1nn(Cc2ccc(C#N)cc2F)c2c(F)c(F)ccc12)C(=O)NCC(N)=O [Example 359] ... 7.33

Now let's try a different one.
Ask: Recorded pKi of COC(=O)[C@@H](NC(=O)c1nn(Cc2ccccc2)c2ccccc12)C(C)(C)C [Example 38] , please.
Reply: 9.85

###

# assayed-system: human CB1 receptor (Homo sapiens)
# experiment: Human CB1 receptor binding, [3H] CP-55,940 displacement on HEK cell membranes
# Parameters: expressed in transfected cells; host or cells: HEK cells, doxycycline-induced; membrane preparation
# particulars: read-out: CB1 Ki
# Protocol: The Human CB1 receptor binding affinity and other biological activities of the compounds of this invention are determined by the following procedures. […] Protein concentration was determined using the Micro-BCA Protein Assay Kit (Pierce, Rockford, Ill.) using BSA as a standard. […] Binding experiments: 50 μl of test compound was incubated with 50 μl of [^3H] […] Nonspecific binding was determined by incubation with 50 μM WIN-55, 212-2 (Tocris, Ellisville, Mo.). […]
We begin with a simple list: items and their reported pKi.
By convention, pKi is the negative base-10 log of a molar concentration.

Consider the reported pKi for these molecules:
CC(C)(C)[C@H](NC(=O)c1nn(Cc2ccc(F)cc2)c2ccccc12)C(=O)NCc1nc(-c2ccccn2)no1 ... 8.89
CC(C)(C)[C@H](NC(=O)c1nn(Cc2ccc(F)c(F)c2)c2ccccc12)C(=O)NCCN1CCNC(=O)C1 ... 7.09
CC(C)(C)[C@H](NC(=O)c1nn(Cc2ccc(F)cc2)c2ccccc12)C(=O)N1CCN(CC(N)=O)CC1 ... 8.08
CC(C)(C)[C@H](NC(=O)c1nn(Cc2ccc(F)cc2)c2ccccc12)C(=O)NCCNS(=O)(=O)C1CC1 ... 9.74
CC(C)(C)[C@H](NC(=O)c1nn(Cc2ccc(F)cc2)c2ccccc12)C(=O)NCCc1cnccn1 ... 7.92
CC(C)(C)[C@H](NC(=O)c1nn(Cc2ccc(F)cc2)c2ccccc12)C(=O)N1CCC(CCO)CC1 ... 8.17

Now let's try a different one.
Ask: Lookup: pKi / human CB1 receptor (Homo sapiens) / "CC(C)(C)[C@H](NC(=O)c1nn(Cc2ccc(F)cc2)c2ccccc12)C(=O)NCCOc1ccccn1"
Reply: 7.67
